tgt: BTK (Homo sapiens, UniProt Q06187)
Sequence (Q06187 402-655 limits assumed): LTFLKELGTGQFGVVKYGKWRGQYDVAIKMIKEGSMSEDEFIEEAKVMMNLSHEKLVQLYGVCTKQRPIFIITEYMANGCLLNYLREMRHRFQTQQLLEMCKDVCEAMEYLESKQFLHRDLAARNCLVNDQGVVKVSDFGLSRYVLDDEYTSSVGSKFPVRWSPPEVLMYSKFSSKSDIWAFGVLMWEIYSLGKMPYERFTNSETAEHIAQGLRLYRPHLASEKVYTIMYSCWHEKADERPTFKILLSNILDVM
protocol_text: biochemical
stated_conditions: read-out: BTK inhibition (%), 0.75 uM BTK, […] probe 3l, 15 min preincubation
*1 amine or outer side, *2 acyl side, *3 side chain or, on linkers, in order; H or OH if unused. Where a SMILES comes first, the peptide text is derived from it. Bridges are numbered along the chain shown (N, C = ends). [ ]: non-standard residue; d: D form. The star is where a group is joined. hTyr(3S-OH,4S-OH,3'-OSO3H) = N[C@H](C(=O)O)[C@H](O)[C@@H](O)c1ccc(O)c(OS(=O)(=O)O)c1; Orn(4R-OH,5R-OH) = O=C([C@H](C[C@@H](O)[C@@H](O)N[*:3])N[*:1])[*:2]; Pro(3S-OH,4S-Me) = C[C@H]1CN[C@H](C(=O)O)[C@H]1O; X1 = CCCCCOc1ccc(-c2cc(-c3ccc(C(=O)*)cc3)no2)cc1; Gln(3R-OH) = NC(=O)C[C@@H](O)[C@H](N)C(=O)O; Hyp = O=C(O)[C@@H]1C[C@@H](O)CN1
Measured inhibition at 10 µM accompanies every entry in the list below.
Lab book: enter the figure in %, no units written.

{"compound": "CC1CCc2c(N3CCC(O)CC3)c(F)cc3c(=O)c(C(=O)O)cn1c23 (stereo not shown)", "tgt": "BTK (Homo sapiens, UniProt Q06187)", "reported_result": 1.6}
{"compound": "OCC1(O)OC[C@@H](O)[C@H](O)[C@@H]1O (stereo partly shown)", "tgt": "BTK (Homo sapiens, UniProt Q06187)", "reported_result": 6.9}
{"compound": "CN[C@H]1C(=O)N[C@@H]2Cc3ccc(cc3)Oc3cc4cc(c3O[C@@H]3O[C@H](C(=O)O)[C@@H](O)[C@H](O)[C@H]3NC(=O)CCCCCCCCC(C)C)Oc3ccc(cc3Cl)[C@@H](O)[C@@H]3NC(=O)[C@H](NC(=O)[C@@H]4NC(=O)[C@@H](NC2=O)c2cc(cc(O)c2Cl)Oc2cc1ccc2O)c1ccc(O)c(c1)-c1c(O[C@H]2O[C@H](CO)[C@@H](O)[C@H](O)[C@@H]2O)cc(O)cc1[C@@H](C(=O)NCCCN(C)C)NC3=O", "tgt": "BTK (Homo sapiens, UniProt Q06187)", "reported_result": 73.2}

Note: attention shifts to another entry.
State the recorded inhibition at 10 µM for this entry: CCCCCOc1ccc(-c2cc(-c3ccc(C(=O)N[C@H]4C[C@@H](O)[C@@H](O)NC(=O)[C@@H]5[C@@H](O)[C@@H](C)CN5C(=O)[C@H]([C@H](O)CC(N)=O)NC(=O)[C@H]([C@H](O)[C@@H](O)c5ccc(O)c(OS(=O)(=O)O)c5)NC(=O)[C@@H]5C[C@@H](O)CN5C(=O)[C@H]([C@@H](C)O)NC4=O)cc3)no2)cc1 [PCM-0215341] (X1-[Orn(4R-OH,5R-OH)]T[Hyp][hTyr(3S-OH,4S-OH,3'-OSO3H)][Gln(3R-OH)][Pro(3S-OH,4S-Me)]; lactam 1-C)
3.4

====

Measured inhibition at 10 µM accompanies every entry in the list below.
tgt: BTK (Homo sapiens, UniProt Q06187)
protocol_text: biochemical
stated_conditions: read-out: BTK inhibition (%), 0.75 uM BTK, […] probe 3l, 15 min preincubation
Lab book: enter the figure in %, no units written.

Examples with their reported inhibition at 10 µM follow.
{"compound": "Cc1cc(O)c(-c2ccc([C@@H](C)CN)cc2)c2c1[nH]c(=O)c1sccc12 [PCM-0215772]", "measure_unit": "%", "reported_result": 70.3}
{"compound": "C=C1c2cccc(O)c2C(O)=C2C(=O)[C@]3(O)C(O)=C(C(N)=O)C(=O)[C@@H](N(C)C)[C@@H]3[C@@H](O)[C@H]12 [PCM-0215189]", "measure_unit": "%", "reported_result": 17}

Request - read-out inhibition at 10 µM | tested on BTK (Homo sapiens, UniProt Q06187) | compound CCCCCCCCCCCCCCCCCC[N+](C)(C)C [PCM-0216157]
-27

Subsequent entry: COc1cc2ncnc(Nc3ccc(F)c(Cl)c3)c2cc1O [PCM-0216130]
5.4

====

Measured BTK inhibition (%) accompanies every entry in the list below.
tgt: BTK (Homo sapiens)
stated_conditions: 10 µM; inhibitor
Lab book: enter the figure in %, no units written.

State the recorded BTK inhibition (%) for this entry: COc1ccc(C=O)cc1O
-7.8

Subsequent entry: CC1=C2C(=O)[C@H]3[C@@H](CC=C4C[C@@H](O)CC[C@@]43C)[C@@H]2CC[C@]12O[C@@H]1C[C@H](C)CN[C@H]1[C@H]2C
-12.5

Subsequent entry: CN1CC=C(c2ccccc2)CC1
3.1

Subsequent entry: C[C@H]1CC[C@@H]2N(C1)C[C@H]1[C@@H]3C[C@H]4[C@@H](CC(=O)[C@H]5C[C@@H](O)CC[C@@]54C)[C@@H]3CC[C@H]1[C@]2(C)O
-13.9

Subsequent entry: C[C@H]1CCCC(=O)CCC/C=C/c2cc(O)cc(O)c2C(=O)O1
10.8

Subsequent entry: Nc1ncnc2c1ccn2[C@@H]1O[C@H](CO)[C@@H](O)[C@H]1O
10.8

Subsequent entry: COP(=O)(OC)SCn1c(=O)oc2cc(Cl)cnc21
-2.3

Subsequent entry: CCCCCc1cc(O)cc(O)c1
-13.9

Subsequent entry: COc1ccc(/C=C/c2cc(OC)cc(OC)c2)cc1
34.2

Subsequent entry: CN1CCC(c2c[nH]c3ccc(O)cc23)CC1
16.3

Subsequent entry: C[C@H]1CC[C@@H]2N(C1)C[C@H]1[C@@H]3C[C@H]4[C@@H](C[C@H](O)[C@H]5C[C@@H](O)CC[C@@]54C)[C@@H]3CC[C@@H]1[C@]2(C)O
-15.4

Subsequent entry: Cc1c([C@H](C)[C@@H]2NC[C@@H](C)C[C@H]2O)ccc2c1C[C@H]1[C@H]2CC=C2C[C@@H](O)CC[C@@]21C
-2.3

Subsequent entry: CC(C)C1=CC(=O)[C@@](C)([C@H]2[C@H](O)C[C@@]3(C)[C@@H]4CC=C5[C@@H](CC[C@@H](O[C@@H]6OC[C@@H](O)[C@H](O)[C@H]6O[C@@H]6O[C@@H](C)[C@H](O)[C@@H](O)[C@H]6O)C5(C)C)[C@]4(C)C(=O)C[C@]23C)O1
2.3

====

Measured inhibition at 10 µM accompanies every entry in the list below.
tgt: BTK (Homo sapiens, UniProt Q06187)
protocol_text: biochemical
stated_conditions: read-out: BTK inhibition (%), 0.75 uM BTK, […] probe 3l, 15 min preincubation
Where a SMILES comes first, the peptide text is derived from it. Bridges are numbered along the chain shown (N, C = ends).
Lab book: enter the figure in %, no units written.

Examples with their reported inhibition at 10 µM follow.
{"compound": "NCCCC[C@H](NC(=O)[C@@H]1CCCN1C(=O)[C@@H]1CSSC[C@H](NC(=O)CNC(=O)CNC(=O)CN)C(=O)N[C@@H](Cc2ccc(O)cc2)C(=O)N[C@@H](Cc2ccccc2)C(=O)N[C@@H](CCC(N)=O)C(=O)N[C@@H](CC(N)=O)C(=O)N1)C(=O)NCC(N)=O [PCM-0216274] (H-GGGCYFQNCPKG-NH2; disulfide 4-9)", "inhibition at 10 µM [%]": -3.4}
{"compound": "O=C(O)c1cn(C2CC2)c2cc(Cl)c(F)cc2c1=O", "inhibition at 10 µM [%]": 7.7}

Note: attention shifts to another entry.
Request - read-out inhibition at 10 µM | tested on BTK (Homo sapiens, UniProt Q06187) | compound CC1(C)CCC[C@]2(C)[C@H]3CC(=O)O[C@]3(C)CC[C@@H]12
-18.7

====

Measured inhibition at 10 µM accompanies every entry in the list below.
tgt: BTK (Homo sapiens)
protocol_text: biochemical
stated_conditions: read-out: BTK inhibition (%), 0.75 uM BTK, […] probe 3l, 15 min preincubation
Lab book: enter the figure in %, no units written.

Examples with their reported inhibition at 10 µM follow.
{"molecule": "Cc1ccc(N(CC2=NCCN2)c2cccc(O)c2)cc1 [PCM-0065435]", "tgt": "BTK (Homo sapiens)", "measure_unit": "%", "reported_result": -8.6}
{"molecule": "CNCc1cc(-c2ccccc2F)n(S(=O)(=O)c2cccnc2)c1 [PCM-0095606]", "tgt": "BTK (Homo sapiens)", "measure_unit": "%", "reported_result": 17}
{"molecule": "O=C(O)CCCCC(CCSCc1ccccc1)SCc1ccccc1 (stereo not drawn) [PCM-0095341]", "tgt": "BTK (Homo sapiens)", "measure_unit": "%", "reported_result": -39.7}
{"molecule": "CC[C@]12C=CCN3CC[C@]4(C(=C(C(=O)OC)C1)Nc1ccccc14)[C@@H]32 [PCM-0215925]", "tgt": "BTK (Homo sapiens)", "measure_unit": "%", "reported_result": 10.8}

Note: attention shifts to another entry.
State the recorded inhibition at 10 µM for this entry: OC[C@H]1O[C@@H](O[C@@H]2[C@@H](CO)O[C@](O)(CO)[C@H]2O)[C@H](O)[C@@H](O)[C@H]1O [PCM-0214810]
13.2
